Entry source: patent US10590081B2

# System: A549 cells
# protocolDetails: Test for inhibition of OCR and enhancement of ECAR (XF Analyzer)
# Assay type: cell-based
# settings: Homo sapiens, 24 hrs treatment, oxygen consumption rate
pIC50: −log10 of the molar value. Structures can show the parent of a compound that is named as a salt.
parameter: pIC50

Asked: # returns recorded pIC50 (system: A549 cells) for N=C(NCc1ccc(Cl)c(Cl)c1)NC(=N)N1CCC(F)(F)CC1 [Example 42, hydrochloride]
Given back: < 5.40

Asked: # returns recorded pIC50 (system: A549 cells) for N=C(NC(=N)N1CCC(F)(F)CC1)Nc1ccc(I)c(Cl)c1 [Example 18, acetate]
Given back: 5.40 to 5.70

Asked: # returns recorded pIC50 (system: A549 cells) for N=C(NC(=N)N1CCC(F)(F)C1)Nc1ccc(OC(F)(F)F)cc1 [Example 25, acetate]
Given back: 5.40 to 5.70

Asked: # returns recorded pIC50 (system: A549 cells) for N=C(NC(=N)N1CCC(F)(F)CC1)Nc1cccc(Oc2ccccc2)c1 [Example 13, hydrochloride]
Given back: 5.40 to 5.70
